Ref: patent US20230192831A1

molecular target: recombinant human GREM1 (hGREM1-His; C-terminal 10His tagged, R&D, #5190-GR) (human) (UniProt O60565); assay: BLI Octet, captured mAb, 100 nM GREM1 + 5 uM heparin
Sequence (O60565 other isoform, or with tags, fused parts or gaps limits assumed, form in doubt): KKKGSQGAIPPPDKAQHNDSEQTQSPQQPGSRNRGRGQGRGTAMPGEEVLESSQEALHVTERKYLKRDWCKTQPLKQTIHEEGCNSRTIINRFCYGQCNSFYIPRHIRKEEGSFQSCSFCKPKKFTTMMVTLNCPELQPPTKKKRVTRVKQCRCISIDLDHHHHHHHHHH
quantity.measured: Binding Signal with 300 sec Association (nm)

Answered cases to consult:
INSERT INTO measurements (binder, result) VALUES
  ('H4H6251P (antibody, human IgG4, V domains shown) VH: QVQLVESGGGVVQPGKSLRLSCAASGFTFSRYGMHWVRQAPGKGLEWVAVIWYDGSNKYYADSVKGRFTISRDNSKNTLYLQMNSLRADDTAMYYCARDDYGDSPGFDFWGQGTLVTVSS VL: EIVMTQSPATLSVSPGERATLSCRASQSVSSNLAWYQQKPGQAPRLLIYDASTRATGIPARFSGTGSGTEFTLTISSLQSEDFALYYCQQYDDWPPWTFGQGTKVEIK', '0.36 nm'),
  ('H4H6252P (antibody, human IgG4, V domains shown) VH: QVQLVESGGGVVQPGRSLRLSCAASGFTFSNYGMHWVRQAPGRGLEWVAVIWFDGSNKYYADSVKGRFTISRDNSKNTLYLQMNSLRSEDTAVYYCTRDDYGDYDYPFDYWGQGTLVTVSS VL: DIQMTQSPSSLSASVGDRVTITCRASQGIRNDLGWYQQKPGKAPKRLIYAASSLQSGVPSRFSGSGSGTEFTLTISSLQPEDFATYYCLQYNTYPPFTFGPGTKVDIK', '0.35 nm'),
  ('H4H6243P (antibody, human IgG4, V domains shown) VH: QVQLVQSGAEVKKPGASVKVSCKVSGYTLTELSMHWVRQAPGKGLEWMGGFDPEDGETIYAQKFQDRVTMTEDTSTDTAYMELSSLRSEDTAVYYCVTDDYEILPEYPYNMDVWGQGTTVTVSS VL: DIQMTQSPSSLSASVGDRVTITCRASQSISTYLNWYQQKPGKAPKLLIYAASSLQSGVPSRFSGSGSGTDFTLTIRSLQPEDFATYYCQQSHITPFTFGPGTKVDIK', '0.21 nm'),
  ('H4H6245P (antibody, human IgG4, V domains shown) VH: EVQLVESGGGLVQPGGSLRLSCAASGFTFNSFWMSWVRQAPGKGLEWVANIKQDGSEKYYVDSVKGRFTISRDNAKNSVYLQMNSLRAEDTAVYYCARDLVTSFDYWGQGTLVTVSS VL: DIQMTQSPSSLSASVGDRVTITCQASQDINNYLNWYQQKPGKAPKLLIYDASYLETGVPSGFSGSGSGTDFTFTISSLQPEDIATYYCQQYDSLPYTFGQGTKLEIK', '0.22 nm');

Now for the binder whose Binding Signal with 300 sec Association (nm) we want.
Give the measured Binding Signal with 300 sec Association (nm) for H4H2895N (antibody, human IgG4, V domains shown) VH: EVQLVESGGGLVQPGGSLRLSCAASGFTVSSNYMSWVRQAPGKGLEWVSVIYSGGNTYYADSVKGRFTISRHNSKNTLYLQMNSLRAEDTAVYYCARDLGIKSDYWGQGTLVTVSS VL: EIVLTQSPDFQSVTPKEKVTITCRASQSIGTTLHWYQQKPDQSPKLLIKYVSQSLSGVPSRFSGSGSGTDFTLTINSLEAEDAATYYCHQSSSLPWTFGQGTKVEIK 0.54 nm
